B1: Receptor-interacting serine/threonine-protein kinase 2, residues 438 to 518; numbered along this chain, O43353 (parent)
chain: QWIQSKREDIVNQMTEACLNQSLDALLSRDLIMKEDYELVSTKPTRTSKVRQLLDTTDIQGEEFAKVIVQKLKDNKQMGLQ

variants of: B1; assay: abundance fitness (aPCA) (normalised: wild type 0, dead -1); higher = more abundant; growth selection in yeast, the domain comes from the species named; conditions: Homo sapiens
Reported abundance fitness by item:
experimentalReadout: abundance fitness

mutationName	experimentalReadout	reportedMeasurement
L26D	abundance fitness	-0.833
S22C	abundance fitness	-0.017
G61Y	abundance fitness	-0.279
S48C	abundance fitness	-0.293
K43F	abundance fitness	-0.466
L54T	abundance fitness	-0.925
R46M	abundance fitness	-0.411
T47Y	abundance fitness	-0.57
T42S	abundance fitness	0.022
L54S	abundance fitness	-0.649
Q21N	abundance fitness	-0.357
I68S	abundance fitness	-0.491
Q70N	abundance fitness	-0.81
T56I	abundance fitness	0.19
S48Y	abundance fitness	-0.644
T57Q	abundance fitness	0.01
K76F	abundance fitness	-0.207
I59C	abundance fitness	-0.029
L31S	abundance fitness	-0.608
L27Y	abundance fitness	-0.069
A25Q	abundance fitness	-0.43
E35D	abundance fitness	-0.142

Measured values drawn from the Human Domainome abundance scans (Beltran et al. 2025) for this set.
